Attribution: ChEMBL document CHEMBL1141286

test system: DU-145; test: Growth inhibition of human DU145 cells; type: functional; conditions: read-out: Log TGI (converted)
endpoint label: TGI (µM)
Supply the numeric figure in µM, leaving out any unit text.

Worked cases, answers included:
smiles data | endpoint label | reported value
CCCc1cc(=O)c2c(O)c3c(OC)cc(O)cc3cc2o1 | TGI | 45.7
COc1cc(O)cc2cc3oc(C)cc(=O)c3c(O)c12 | TGI | 70.8

Let us move to another entry and its TGI.
[Q] Recorded TGI for CCCc1cc(=O)c2c(OC)c3c(OC)cc(O)c(Oc4c(O)cc(OC)c5c(OC)c6c(=O)cc(CCC)oc6cc45)c3cc2o1 with DU-145, please?
[A] 18.6

###

system: 786-0; test: Growth inhibition of human 786-0 cells; type: functional; conditions: read-out: Log TGI (converted)
Property: TGI; scope: individual compounds
Supply the numeric figure in µM, leaving out any unit text.

[Q] Recorded TGI for COc1cc(O)cc2cc3oc(C)cc(=O)c3c(O)c12 with 786-0, please?
[A] 50.1

[Q] Recorded TGI for CCCc1cc(=O)c2c(OC)c3c(OC)cc(O)c(Oc4c(O)cc(OC)c5c(OC)c6c(=O)cc(CCC)oc6cc45)c3cc2o1 with 786-0, please?
[A] 21.9

###

Property: GI50; scope: individual compounds
system: K562; assay: Growth inhibition of human K562 cells; format: functional
Supply the numeric figure in µM, leaving out any unit text.

Worked cases, answers included:
compound | uom | GI50
COc1cc(O)cc2cc3oc(C)cc(=O)c3c(O)c12 | µM | 14.8
CCCc1cc(=O)c2c(OC)c3c(OC)cc(O)c(Oc4c(O)cc(OC)c5c(OC)c6c(=O)cc(CCC)oc6cc45)c3cc2o1 | µM | 4.79
COc1cc(O)cc2cc3oc(C)cc(=O)c3c(OC)c12 [COMANTHERIN] | µM | 47.9
CCCc1cc(=O)c2c(O)c3c(OC)cc(O)cc3cc2o1 | µM | 18.2

Let us move to another entry and its GI50.
[Q] Consider the compound CCCc1cc(=O)c2c(OC)c3c(OC)cc(OC)cc3cc2o1 and give its measured GI50.
[A] 39.8

###

Property: TGI; scope: individual compounds
test system: SN12C; assay: Growth inhibition of human SN12C cells; assay type: functional; settings: read-out: Log TGI (converted)
Supply the numeric figure in µM, leaving out any unit text.

smiles data | reported value
CCCc1cc(=O)c2c(OC)c3c(OC)cc(O)c(Oc4c(O)cc(OC)c5c(OC)c6c(=O)cc(CCC)oc6cc45)c3cc2o1 | 4.79

Let us move to another entry and its TGI.
[Q] Consider the compound CCCc1cc(=O)c2c(O)c3c(OC)cc(O)cc3cc2o1 and give its measured TGI.
[A] 50.1

###

Property: GI50; scope: individual molecules
test system: COLO 205; experiment: Growth inhibition of human COLO205 cells; format: functional
Supply the numeric figure in µM, leaving out any unit text.

Worked cases, answers included:
smiles data | endpoint label | uom | reported value
CCCc1cc(=O)c2c(O)c3c(OC)cc(O)cc3cc2o1 | GI50 | µM | 25.1
CCCc1cc(=O)c2c(OC)c3c(OC)cc(O)c(Oc4c(O)cc(OC)c5c(OC)c6c(=O)cc(CCC)oc6cc45)c3cc2o1 | GI50 | µM | 10

[Q] Consider the molecule COc1cc(O)cc2cc3oc(C)cc(=O)c3c(O)c12 and give its measured GI50.
[A] 20.4
